- targetOrSystem: T1, 4H348-bA
- T1 chain: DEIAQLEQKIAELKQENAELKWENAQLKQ
- test: two-hybrid library CCNG1;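 also: natural log of median RNA to DNA barcode read ratio; higher means stronger binding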
reportedMetric: interaction score

[
  {
    "binder": "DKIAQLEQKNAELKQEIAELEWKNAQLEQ [4H2503-bA]",
    "interaction score": -1.13
  },
  {
    "binder": "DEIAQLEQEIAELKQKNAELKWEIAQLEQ [4H121-bA]",
    "interaction score": -1.19
  },
  {
    "binder": "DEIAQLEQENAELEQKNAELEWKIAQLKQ [4H182-bA]",
    "interaction score": -1.35
  },
  {
    "binder": "DKIAQLKQKIAELKQKIAELEWENAQLEQ [4H2915-bA]",
    "interaction score": -1.42
  },
  {
    "binder": "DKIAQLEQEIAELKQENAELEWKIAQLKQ [4H2134-bA]",
    "interaction score": -1.14
  }
]
